- experiment: logP by reversed-phase HPLC (EEC Directive 79/831 Annex V.A8)
- Format: physicochemical
- assay.conditions: reversed-phase C18 HPLC column; HPLC, reversed-phase C 18, 43° C., acidic range a): 0.1% aqueous phosphoric acid, acetonitrile gradient
Catalogue of molecules with associated chromatographic logP
Lab note: jot down the number only; don't add units.

Here's what some known entries look like.
• C[C@H](Nc1nc(NC=O)nc([C@@H](C)F)n1)C1CCCCC1 = 3.04
• CCC(=O)Nc1nc(N[C@@H](C)C2CCCCC2)nc([C@@H](C)F)n1 = 3.14

We next turn to a different molecule, shown below.
Reported chromatographic logP for "C[C@H](Nc1nc(N)nc([C@@H](C)F)n1)C1CCCCC1" was 1.83
